# Tested on: Northern house mosquito (female adult)
# test.summary: Insecticidal test in acrylic resin cylinder, air blown through impregnated honeycomb carrier (Example 1)
# Format: in vivo
# measurement.setup: 4.0 min; 500 mg preparation, 26 to 30° C.
Items are presented alongside their recorded number of knockdowns.

As a guide, the following entries are already answered.
INSERT INTO assay_data (molecule, readout_name, measured_result) VALUES
  ('C#CCc1ccc(COC(=O)C2C(C=C(C)C)C2(C)C)o1 (mixture of isomers) [furamethrin]', 'number of knockdowns', 19),
  ('CC(C)=CC1C(C(=O)OCc2coc(Cc3ccccc3)c2)C1(C)C (mixture of isomers) [resmethrin]', 'number of knockdowns', 5),
  ('C#CC(OC(=O)C1C(C=C(C)C)C1(C)C)/C(C)=C/CC (mixture of isomers) [empenthrin]', 'number of knockdowns', 25);

Next, consider the following molecule.
// lookup number of knockdowns for C=CCC1=C(C)C(OC(=O)C2C(C=C(C)C)C2(C)C)CC1=O (stereo not shown) [esbiol]
22

----------
# Tested on: Northern house mosquito (female adult)
# test.summary: Insecticidal test in acrylic resin cylinder, air blown through impregnated honeycomb carrier (Example 1)
# Assay type: in vivo
# measurement.setup: 48 hrs.; 500 mg preparation
# Mortality (%) listing for each entry below
Please state the figure in %; there is no need to write the unit.

# example entries with known answers
INSERT INTO results (compound, readout_name, unit_symbol, measured_result) VALUES
  ('C=CCC1=C(C)C(OC(=O)C2C(C=C(C)C)C2(C)C)CC1=O (stereo not drawn)', 'Mortality (%)', '%', 78),
  ('C#CCc1ccc(COC(=O)C2C(C=C(C)C)C2(C)C)o1 (mixture of isomers)', 'Mortality (%)', '%', 100),
  ('C#CC(OC(=O)C1C(C=C(C)C)C1(C)C)/C(C)=C/CC (mixture of isomers)', 'Mortality (%)', '%', 100),
  ('C=CCC1=C(C)C(OC(=O)C2C(C)(C)C2(C)C)CC1=O (racemic)', 'Mortality (%)', '%', 100);

Lookup: Mortality (%) / Northern house mosquito (female adult) / C#CCC1=C(C)C(OC(=O)C2C(C=C(C)C)C2(C)C)CC1=O (mixture of isomers)
100

API: value(readout=Mortality (%), system=Northern house mosquito (female adult)) for record CC(C)=CC1C(C(=O)OCc2coc(Cc3ccccc3)c2)C1(C)C (mixture of isomers)
79

----------
# test.summary: Vapor pressure measurement of pyrethroid compounds with the vapor pressure measuring apparatus
# measurement.setup: 20° C.
readout.name: Vapor Pressure

As a guide, the following entries are already answered.
INSERT INTO assay_data (molecule, measured_result) VALUES
  ('C#CCc1ccc(COC(=O)C2C(C=C(C)C)C2(C)C)o1 (mixture of isomers)', '1.3 × 10^−4 mmHg'),
  ('CC(C)=CC1C(C(=O)OCc2coc(Cc3ccccc3)c2)C1(C)C (mixture of isomers)', '3.5 × 10^−6 mmHg'),
  ('CC(C)=CC1C(C(=O)OC(C#N)c2cccc(Oc3ccccc3)c2)C1(C)C (racemic)', '9.2 × 10^−7 mmHg');

# context switch: different molecule, same Vapor Pressure
Vapor Pressure for CC1(C)C(C=C(Cl)Cl)C1C(=O)OCc1cccc(Oc2ccccc2)c1 (mixture of isomers) ?
5.5 × 10^−7 mmHg

----------
# Test system: Northern house mosquito (female adult)
# test.summary: Insecticidal test in acrylic resin cylinder, air blown through impregnated honeycomb carrier (Example 1)
# Type: in vivo
# measurement.setup: 1.0 min; 500 mg preparation, 26 to 30° C.
number of knockdowns by entry:
Just the number, please, no unit attached.

INSERT INTO measurements (compound, measured_result) VALUES
  ('CC(C)=CC1C(C(=O)OCc2coc(Cc3ccccc3)c2)C1(C)C (mixture of isomers) [resmethrin]', 0),
  ('C=CCC1=C(C)C(OC(=O)C2C(C)(C)C2(C)C)CC1=O (racemic) [terallethrin]', 0),
  ('C#CCC1=C(C)C(OC(=O)C2C(C=C(C)C)C2(C)C)CC1=O (mixture of isomers) [prallethrin]', 0),
  ('C#CC(OC(=O)C1C(C=C(C)C)C1(C)C)/C(C)=C/CC (mixture of isomers) [empenthrin]', 0),
  ('C=CCC1=C(C)C(OC(=O)C2C(C=C(C)C)C2(C)C)CC1=O (stereo not drawn) [esbiol]', 0);

Sample C#CCc1ccc(COC(=O)C2C(C=C(C)C)C2(C)C)o1 (mixture of isomers) [furamethrin] — what was its number of knockdowns?
0
